All figures here come from patent US20120149735A1.

Threshold-based label: melting point under 200 °C gives true (1), melting point not under 200 °C gives false (0).

As a guide, the following entries are already answered.
> print(dat)
                                   compound  group.label
1  CCCCCn1cc(C(=O)NC23CC4CC(CC(C4)C2)C3)c(=O)cc1-c1ccccc1     true (1)
2  CCCCCn1cc(C(=O)NCC23CC4CC(CC(C4)C2)C3)c(=O)cc1-c1ccccc1     true (1)
3  CCCCCn1cc(C(=O)NC2CCCCC2)c(=O)cc1C(C)(C)C     true (1)
4  CCCCCn1cc(C(=O)NC2CCCc3ccccc32)c(=O)cc1-c1ccccc1 (racemic)     true (1)
5  CCn1cc(C(=O)NC(C)C23CC4CC(CC(C4)C2)C3)c(=O)cc1-c1ccccc1 (stereo not drawn)    false (0)

is_below(melting point, 200 °C) for CCCCCn1cc(C(=O)NC23CC4CC(CC(C4)C2)C3)c(=O)cc1-c1ccc(Cl)cc1 ?
true (1)

Can you handle CCCCCn1cc(C(=O)N[C@@H]2CCCc3ccccc32)c(=O)cc1-c1ccccc1 next?
true (1)

Do the same for CC(NC(=O)c1cn(-c2ccccc2)c(-c2ccccc2)cc1=O)C12CC3CC(CC(C3)C1)C2 (stereo not drawn) please
false (0)
